- protocol-summary: protein stability index of a GFP-peptide fusion (yeast GPS) (PSI 1-4); higher = more stable; sorted into four equal gates, so the index is relative within each strain
- test-conditions: ubr1∆
measurement-label: protein stability index
// return just the number, without any unit appended

Here is how some sequences turned out for protein stability index.
>>> reported("IVTALLESDVNIALVSK [SRP54]")
3.35
>>> reported("DKFFNEVNKSELYLTAE [SIR3]")
3.58
>>> reported("WKNLVLKLSQAFGSSAT [YJR042W/NUP85]")
1.93
>>> reported("LAKIKEEEMAPYYKYLC [RPN7]")
1.37
>>> reported("VNYNSDMIKCFLPKLNS [NUT1]")
1.27

Please list protein stability index recorded for the sequence CKKKEMSQYQSTMKENK [YIL149C/MLP2]
2.55

Return protein stability index for the following sequence: LIEKVDDTAANNGDKDH [YIL149C/MLP2]
3.09

Supply recorded protein stability index for PNPTPSMINSVSPTNVM [PGD1] here.
2.27

Using the record for DRKDQDDRDHFGKKRLD [RPB2] , state its measured protein stability index.
3.39

Assign protein stability index to the following record: QEYAIEMKIGSIESKLE [SMC1]
2.94

Annotate the sequence VSFRTHNSHLSLNYKFT [SRP21] with its measured protein stability index.
3.15

Output measured protein stability index for this item: LRRIITDLNQDSAAIIA [GRR1]
2.55

Using known records, supply protein stability index for VPTSIQTKRWPTMYTRL [SIN4]
2.62

Could you please provide reported protein stability index for QSFQNPFTASQSNINTN [YIL149C/MLP2] ? Thanks!
2.73

Give protein stability index for KSPEQCILRFLQLPIED [SWI3]
1.41

Input KVTQMTPAPKISYKKGA [RPL36B] , output reported protein stability index.
3.21

Kindly indicate its recorded protein stability index. Item: ETFQDTFSGALGKQSSS [FAS2]
3.11

Recall and state the measured protein stability index for DSENFSFEKLYEGMKLG [YMR129W/POM152] .
3.29

Annotate the sequence KIGDLGLARKFHNMLQT [SSN3] with its measured protein stability index.
3.37

Report protein stability index for PIGRHEELLAQYESQAP [SWP82]
2.07

* * *

- protocol-summary: protein stability index of a GFP-peptide fusion (yeast GPS) (PSI 1-4); higher = more stable; sorted into four equal gates, so the index is relative within each strain
- test-conditions: ubr1∆
Parameter: protein stability index. Scope: all listed entries.

>>> reported("KDEYLAQLDGRIGVLQA [NSL1]")
2.99
>>> reported("FLIDVLKIYAQIEKKEI [YCG1]")
1.4
>>> reported("MKMDKSPTESYSDIGGL [RPT2]")
3.05
>>> reported("CQILDGELDVLQIESVT [PRP8]")
2.86

Let us move to another entry and its protein stability index.
Quick one: give measured protein stability index for QSNINTNAPLRTLNIQP [YIL149C/MLP2]
2.19

* * *

- protocol-summary: protein stability index of a GFP-peptide fusion (yeast GPS) (PSI 1-4); higher = more stable; sorted into four equal gates, so the index is relative within each strain
- test-conditions: doa10∆
Label scheme for protein stability index: lower than 3 is NO, 3 and above is YES.

Some solved entries appear below for comparison.
>>> classification("GTNAMLPSPESLKTKLN [SNF5]")
"NO"
>>> classification("KFPATNVTTILDEIFSG [ECM29]")
"NO"
>>> classification("EAIDGNGEIKGENIDAD [SNF2]")
"YES"
>>> classification("EIKKLLATNSLVEEFML [DIS3]")
"NO"
>>> classification("KITDKEDLLHYIEEKHP [POP4]")
"YES"

Could you verify whether the entry HVQFRLGNVDAFQLADG [PRP8] shows protein stability index of no less than 3?
YES

// inclusive: protein stability index at least 3? input: LLKLERKKTEAVARLKS [SNF2]
NO

# bool: protein stability index of LRAHTDDSRNPDCKIKI [PRE2] >= 3
NO

* * *

- protocol-summary: protein stability index of a GFP-peptide fusion (yeast GPS) (PSI 1-4); higher = more stable; sorted into four equal gates, so the index is relative within each strain
- test-conditions: doa10∆
measurement-label: protein stability index

Answered cases to consult:
>>> reported("LEAVNSMIEKGGDWERR [RPN7]")
3.02
>>> reported("VNDVEELGEIIDEDIGN [RMP1]")
3.41
>>> reported("VARIPRVGGGGTGRSGQ [RPL4A]")
3.46
>>> reported("QMLIQGVWDVDNPLRQI [BRR2]")
3.54
>>> reported("DLLRSQLTSLEKDCSLR [YIL149C/MLP2]")
2.94

Please look at this sequence and report its protein stability index: QPVNFNRSWDHAYNITF [RPO31]
2.13

Could you please provide reported protein stability index for ETFQDTFSGALGKQSSS [FAS2] ? Thanks!
3.23

* * *

- protocol-summary: protein stability index of a GFP-peptide fusion (yeast GPS) (PSI 1-4); higher = more stable; sorted into four equal gates, so the index is relative within each strain
- test-conditions: san1∆
measurement-label: protein stability index

// below: answered sequences
>>> reported("KIGDLGLARKFHNMLQT [SSN3]")
3.23
>>> reported("PISKHSKQAIYTRATAS [RPS25A]")
1.64
>>> reported("YYYYHPMNAPTPAMIPY [DSN1]")
2.49
>>> reported("SLLSLVGHLSILPQQSK [ECM29]")
1.94
>>> reported("RSRNGGATKIVREHYLR [DIS3]")
3.36

Please list protein stability index recorded for the sequence GSIGSRKYSFNYSSLPS [YAR002W/NUP60]
2.12

Check the records and state protein stability index for ALLTKRLYPHWDHPVIA [CSN12]
1.7

* * *

- protocol-summary: protein stability index of a GFP-peptide fusion (yeast GPS) (PSI 1-4); higher = more stable; sorted into four equal gates, so the index is relative within each strain
- test-conditions: pdr5∆
measurement-label: protein stability index
Lab note: write the figure by itself, no unit.

>>> reported("NSLLSNFNDIPPSVTLQ [YDL088C/ASM4]")
1.98
>>> reported("NNTNNNNTNTGASGVDD [SWI1]")
2.95
>>> reported("DKDSEELDSKTRKILEI [MED4]")
2.65
>>> reported("NLRLLVEENRVRYTTSV [DLS1]")
2.65
>>> reported("FEQTAFSRHAQQQTSTF [SIR4]")
2.32
>>> reported("NPLAKTMADAVRELGIL [SEC65]")
2.3

Next item in the queue.
Indicate the recorded protein stability index value for this sequence: LNFKDDKKYKGLTTVWL [REC8]
2.77

* * *

- protocol-summary: protein stability index of a GFP-peptide fusion (yeast GPS) (PSI 1-4); higher = more stable; sorted into four equal gates, so the index is relative within each strain
- test-conditions: doa10∆
measurement-label: protein stability index
Could you respond with only the numeric value?

>>> reported("FPRSRSRSRSSIRSISP [ESC2]")
2.86
>>> reported("EHKSQVVLYNYYLGQYY [CSN12]")
2.23

Switching to the query record.
Name the recorded protein stability index of the sequence listed here: QLIGSNIELHSLYTSRE [PUP1]
3.33

* * *

- protocol-summary: protein stability index of a GFP-peptide fusion (yeast GPS) (PSI 1-4); higher = more stable; sorted into four equal gates, so the index is relative within each strain
- test-conditions: ubr1∆
measurement-label: protein stability index
Format: numeric value only, no unit, no commentary.

>>> reported("LPSEDSRAQILQIHSRK [RPT5]")
2.89

Give me measured protein stability index, please, for this sequence: FINNVLSNPSNQNICTS [GRR1]
2.47

Give recorded protein stability index. ANQSATSTPPPPPAPHN [SNF5]
3.1

Tell me measured protein stability index for CRNINRKHRNAQFAGRA [DIS3] please.
2.92

Give the reported protein stability index for this sequence. PFVLAENMWPFSYQEVE [CDC53]
2.25

Quote protein stability index reported for ETATLIMNELYRMKGGR [SMC3] please.
3.26

Please list protein stability index recorded for the sequence IQRTTESLILKWDNQSA [RGR1]
2.94

// fetch protein stability index given entry IAACTGVPDDKWEQTYK [FAS1]
1.31

* * *

- protocol-summary: protein stability index of a GFP-peptide fusion (yeast GPS) (PSI 1-4); higher = more stable; sorted into four equal gates, so the index is relative within each strain
- test-conditions: ubr1∆
measurement-label: protein stability index
Give your answer as a number; write no unit.

>>> reported("GTISKLENKENGLLNEI [SMC2]")
3.35
>>> reported("IRKGANDGEVYQKIFKP [PRE9]")
1.83
>>> reported("NNNNNNNNSNNIMSASG [YGL172W/NUP49]")
3.1
>>> reported("LEAVNSMIEKGGDWERR [RPN7]")
2.87
>>> reported("MSSTTPKLESVKWQYDP [SNF12]")
3.39
>>> reported("TGLNGSGKSNILDAICF [SMC2]")
3.31

Assign protein stability index to the following record: LAAIVSTVIEEFTLFMD [YGL172W/NUP49]
2.42
